# measured.on: APJ (Homo sapiens, UniProt P35414)
# Construct: expressed in transfected cells; host or cells: CHO (CHO-A10; clone 6 for the cAMP assay)
# Sequence (P35414 whole entry): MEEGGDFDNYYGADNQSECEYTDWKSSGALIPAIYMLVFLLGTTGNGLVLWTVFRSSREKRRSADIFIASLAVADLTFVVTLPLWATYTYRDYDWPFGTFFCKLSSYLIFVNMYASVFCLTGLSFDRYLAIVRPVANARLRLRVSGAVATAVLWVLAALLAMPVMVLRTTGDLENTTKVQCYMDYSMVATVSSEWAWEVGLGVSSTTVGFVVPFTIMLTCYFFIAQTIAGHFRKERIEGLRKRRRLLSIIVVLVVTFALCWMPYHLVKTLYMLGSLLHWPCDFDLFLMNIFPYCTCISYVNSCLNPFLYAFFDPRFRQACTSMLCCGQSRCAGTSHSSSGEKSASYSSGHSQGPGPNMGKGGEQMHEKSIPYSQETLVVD
# test.protocol: Receptor binding assay-2 (compound in Reference Example 2 used)
# setup.conditions: compound in Reference Example 2 used as ligand; read-out: IC50
Non-standard residues stand in square brackets, D forms with d. Residues, ends and D or L forms follow the SMILES beside them. Cha = N[C@@H](CC1CCCCC1)C(=O)O
metric.name: IC50 (nM)

INSERT INTO results (compound, measured_on, display_unit, quantitative_readout) VALUES
  ('CC(C)C[C@H](NC(=O)[C@H](CCCNC(=N)N)NC(=O)[C@@H]1CCCN1C(=O)[C@@H](N)CCCNC(=N)N)C(=O)N[C@@H](CO)C(=O)N[C@@H](C)C(=O)N[C@@H](CCCNC(=N)N)C(=O)NCC(=O)N1CCC[C@H]1C(=O)N[C@@H](CC1CCCCC1)C(=O)N1CCC[C@H]1C(=O)N[C@@H](Cc1ccccc1)C(=O)O [Compound in Ex. 11] (H-RPRLSARGP[Cha]PF-OH; N-terminus and C-terminus assumed)', 'APJ (Homo sapiens, UniProt P35414)', 'nM', 0.084),
  ('CSCC[C@H](NC(=O)[C@@H]1CCCN1C(=O)CNC(=O)[C@H](CCCNC(=N)N)NC(=O)[C@H](C)NC(=O)[C@H](CO)NC(=O)[C@H](CC(C)C)NC(=O)[C@H](CCCNC(=N)N)NC(=O)[C@@H]1CCCN1C(=O)[C@H](CCCNC(=N)N)NC(=O)[C@H](CCC(N)=O)NC(=O)[C@H](CCCNC(=N)N)NC(=O)[C@@H](N)CCCNC(=N)N)C(=O)N1CCC[C@H]1C(=O)N[C@@H](Cc1ccc(Cl)cc1)C(N)=O [Compound in Ex. 59]', 'APJ (Homo sapiens, UniProt P35414)', 'nM', 0.18),
  ('CSCC[C@H](NC(=O)[C@@H]1CCCN1C(=O)CNC(=O)[C@H](CCCCN)NC(=O)[C@H](Cc1c[nH]cn1)NC(=O)[C@H](CO)NC(=O)[C@H](CC(C)C)NC(=O)[C@H](CCCNC(=N)N)NC(=O)[C@@H]1CCCN1C(=O)[C@H](CCCNC(=N)N)NC(=O)[C@H](Cc1ccccc1)NC(=O)[C@H](CCCNC(=N)N)NC(=O)[C@@H](N)CCCNC(=N)N)C(=O)N1CCC[C@H]1C(=O)N[C@@H](Cc1ccccc1)C(=O)O [Compound in Ex. 33]', 'APJ (Homo sapiens, UniProt P35414)', 'nM', 0.37);
